Source listed as patent US10570179B2.

μsol (μM) values by entry
assay: Solubility determination; type: physicochemical; settings: solubility
Numbered stars: 1 amine (or outer) side, 2 acyl side, 3 side chain; on linkers, the order of the positions; unused ones are H or OH. Bridge positions count the residues as written; N and C are the ends. Square brackets hold non-standard residues; d marks the D form. Peptide text beside a SMILES is read from it. * marks the point of attachment. X5 = O=C([C@@H]1C[C@@H](OP(=O)(O)O)CN1[*:1])[*:2]; Phe(3,5-F2) = N[C@@H](Cc1cc(F)cc(F)c1)C(=O)O; NH(1-Me-indolin-5-yl) = CN1CCc2cc(N*)ccc21; Morpholine(3S-CO) = O=C(O)[C@@H]1COCCN1; Phe(3-Me) = Cc1cccc(C[C@H](N)C(=O)O)c1; NH(4-Cl-2-F-phenyl) = Fc1cc(Cl)ccc1N*; Pro(4R-Me) = C[C@H]1CN[C@H](C(=O)O)C1; aThr = C[C@H](O)[C@H](N)C(=O)O; Pip = O=C(O)[C@@H]1CCCCN1; CO = O=C([*:1])[*:2]

COMPOUND	μsol (μM) [µM]
C[C@@H]1C[C@H]2C(=O)O[C@@H](C)[C@H](NC(=O)[C@H](Cc3cc(F)cc(F)c3)NC(=O)Nc3ccc4c(c3)CCN4C)C(=O)N3CCC[C@H]3C(=O)N3CCOC[C@H]3C(=O)N[C@@H](C)C(=O)N2C1 [Compound 32] ({NH(1-Me-indolin-5-yl)-CO}-[Phe(3,5-F2)][aThr]P[Morpholine(3S-CO)]A[Pro(4R-Me)]; ester 2-C)	73.4
Cc1cccc(C[C@H](NC(=O)Nc2ccc(Cl)cc2F)C(=O)N[C@@H]2C(=O)N3C[C@H](OP(=O)(O)O)C[C@H]3C(=O)N3CCCC[C@H]3C(=O)N[C@@H](C)C(=O)N3C[C@H](C)C[C@H]3C(=O)O[C@H]2C)c1 [Compound 29] ({NH(4-Cl-2-F-phenyl)-CO}-[Phe(3-Me)][aThr][X5][Pip]A[Pro(4R-Me)]; ester 2-C)	58.7

---

tested on: S. aureus USA 300; test: Minimal inhibitory concentration, microbroth dilution; type: cell-based; details: Staphylococcus aureus, USA300, read-out: Minimal Inhibitory Concentrations (μM) S. aureus USA 300, MIC
Numbered stars: 1 amine (or outer) side, 2 acyl side, 3 side chain; on linkers, the order of the positions; unused ones are H or OH. Bridge positions count the residues as written; N and C are the ends. Square brackets hold non-standard residues; d marks the D form. Peptide text beside a SMILES is read from it. * marks the point of attachment. Morpholine(3S-CO) = O=C(O)[C@@H]1COCCN1; Phe(3-Me) = Cc1cccc(C[C@H](N)C(=O)O)c1; Pro(4R-Me) = C[C@H]1CN[C@H](C(=O)O)C1; Hyp = O=C(O)[C@@H]1C[C@@H](O)CN1; NH(3-Cl-phenyl) = Clc1cccc(N*)c1; NH(4-Me-phenyl) = Cc1ccc(N*)cc1; aThr = C[C@H](O)[C@H](N)C(=O)O; Pip = O=C(O)[C@@H]1CCCCN1; CO = O=C([*:1])[*:2]

COMPOUND	UNITS TEXT	MIC
Cc1cccc(C[C@H](NC(=O)Nc2cccc(Cl)c2)C(=O)N[C@@H]2C(=O)N3C[C@H](O)C[C@H]3C(=O)N3CCOC[C@H]3C(=O)N[C@@H](C)C(=O)N3C[C@H](C)C[C@H]3C(=O)O[C@H]2C)c1 [Compound 74] ({NH(3-Cl-phenyl)-CO}-[Phe(3-Me)][aThr][Hyp][Morpholine(3S-CO)]A[Pro(4R-Me)]; ester 2-C)	µM	1.25
Cc1ccc(NC(=O)N[C@@H](Cc2cccc(C)c2)C(=O)N[C@@H]2C(=O)N3C[C@H](O)C[C@H]3C(=O)N3CCCC[C@H]3C(=O)N[C@@H](C)C(=O)N3CCC[C@H]3C(=O)O[C@H]2C)cc1 [Compound 51] ({NH(4-Me-phenyl)-CO}-[Phe(3-Me)][aThr][Hyp][Pip]AP; ester 2-C)	µM	5

---

assay: Solubility determination; assay type: physicochemical; details: 22 °C, aqueous buffer, kinetic from dmso stock
Numbered stars: 1 amine (or outer) side, 2 acyl side, 3 side chain; on linkers, the order of the positions; unused ones are H or OH. Bridge positions count the residues as written; N and C are the ends. Square brackets hold non-standard residues; d marks the D form. Peptide text beside a SMILES is read from it. * marks the point of attachment. Morpholine(3S-CO) = O=C(O)[C@@H]1COCCN1; Phe(3-Me) = Cc1cccc(C[C@H](N)C(=O)O)c1; NH(4-Cl-2-F-phenyl) = Fc1cc(Cl)ccc1N*; Pro(4R-Me) = C[C@H]1CN[C@H](C(=O)O)C1; X1 = O=C([C@@H]1CSCCN1[*:1])[*:2]; Hyp = O=C(O)[C@@H]1C[C@@H](O)CN1; NH(4-Et-phenyl) = CCc1ccc(N*)cc1; aThr = C[C@H](O)[C@H](N)C(=O)O; Pip = O=C(O)[C@@H]1CCCCN1; X3 = c1cc2c(cc1N*)OCCO2; CO = O=C([*:1])[*:2]; X2 = Fc1cc(N*)ccc1Cl
solubility kinetic at 10 min values by entry
MEASUREMENT KIND: solubility kinetic at 10 min (µM)

MOLECULE	NUMERIC RESULT
Cc1cccc(C[C@H](NC(=O)Nc2ccc(Cl)cc2F)C(=O)N[C@@H]2C(=O)N3CCC[C@H]3C(=O)N3CCSC[C@H]3C(=O)N[C@@H](C)C(=O)N3C[C@H](C)C[C@H]3C(=O)O[C@H]2C)c1 [Compound 38] ({NH(4-Cl-2-F-phenyl)-CO}-[Phe(3-Me)][aThr]P[X1]A[Pro(4R-Me)]; ester 2-C)	0.011
CCc1ccc(NC(=O)N[C@@H](Cc2cccc(C)c2)C(=O)N[C@@H]2C(=O)N3C[C@H](O)C[C@H]3C(=O)N3CCOC[C@H]3C(=O)N[C@@H](C)C(=O)N3C[C@H](C)C[C@H]3C(=O)O[C@H]2C)cc1 [Compound 24] ({NH(4-Et-phenyl)-CO}-[Phe(3-Me)][aThr][Hyp][Morpholine(3S-CO)]A[Pro(4R-Me)]; ester 2-C)	43.7
Cc1cccc(C[C@H](NC(=O)Nc2ccc(Cl)c(F)c2)C(=O)N[C@@H]2C(=O)N3CCC[C@H]3C(=O)N3CCCC[C@H]3C(=O)N[C@@H](C)C(=O)N3C[C@H](C)C[C@H]3C(=O)O[C@H]2C)c1 [Compound 35] ({X2-CO}-[Phe(3-Me)][aThr]P[Pip]A[Pro(4R-Me)]; ester 2-C)	0.002
Cc1cccc(C[C@H](NC(=O)Nc2ccc(Cl)cc2F)C(=O)N[C@@H]2C(=O)N3C[C@H](O)C[C@H]3C(=O)N3CCCC[C@H]3C(=O)N[C@@H](C)C(=O)N3C[C@H](C)C[C@H]3C(=O)O[C@H]2C)c1 [Compound 6] ({NH(4-Cl-2-F-phenyl)-CO}-[Phe(3-Me)][aThr][Hyp][Pip]A[Pro(4R-Me)]; ester 2-C)	12.6
Cc1cccc(C[C@H](NC(=O)Nc2ccc(Cl)cc2F)C(=O)N[C@@H]2C(=O)N3CCC[C@H]3C(=O)N3CCCC[C@H]3C(=O)N[C@@H](C)C(=O)N3C[C@H](C)C[C@H]3C(=O)O[C@H]2C)c1 [Compound 3] ({NH(4-Cl-2-F-phenyl)-CO}-[Phe(3-Me)][aThr]P[Pip]A[Pro(4R-Me)]; ester 2-C)	0.5
Cc1cccc(C[C@H](NC(=O)Nc2ccc3c(c2)OCCO3)C(=O)N[C@@H]2C(=O)N3CCC[C@H]3C(=O)N3CCCC[C@H]3C(=O)N[C@@H](C)C(=O)N3C[C@H](C)C[C@H]3C(=O)O[C@H]2C)c1 [Compound 21] ({X3-CO}-[Phe(3-Me)][aThr]P[Pip]A[Pro(4R-Me)]; ester 2-C)	30.6

---

experiment: Microsomal metabolic stability; type: in vitro ADME, mouse; details: CD-1, mouse, pH 7.4
Numbered stars: 1 amine (or outer) side, 2 acyl side, 3 side chain; on linkers, the order of the positions; unused ones are H or OH. Bridge positions count the residues as written; N and C are the ends. Square brackets hold non-standard residues; d marks the D form. Peptide text beside a SMILES is read from it. * marks the point of attachment. Piperazine(2S-CO,4-Me) = CN1CCN[C@H](C(=O)O)C1; Phe(3-OMe) = COc1cccc(C[C@H](N)C(=O)O)c1; NH(4-Cl-2-F-phenyl) = Fc1cc(Cl)ccc1N*; Pro(4R-Me) = C[C@H]1CN[C@H](C(=O)O)C1; CO = O=C([*:1])[*:2]
MEASUREMENT KIND: Mouse (h)

MOLECULE	NUMERIC RESULT
COc1cccc(C[C@H](NC(=O)Nc2ccc(Cl)cc2F)C(=O)N[C@H]2COC(=O)[C@@H]3C[C@@H](C)CN3C(=O)[C@H](C)NC(=O)[C@@H]3CN(C)CCN3C(=O)[C@@H]3CCCN3C2=O)c1 [Compound 19] ({NH(4-Cl-2-F-phenyl)-CO}-[Phe(3-OMe)]SP[Piperazine(2S-CO,4-Me)]A[Pro(4R-Me)]; ester 2-C)	0.80
